Listed here: molecules with reported CC50 for Vero E6 cells.
Your answer is read as µM, so omit the unit and give the number.

Write down the reported CC50 of N=C1C(=Cc2ccc3c(c2)OCO3)C(=O)C=C2SC(C(F)(F)F)=NN12 , test system: Vero E6 cells.
67

Record lookup: for Vero E6 cells, what CC50 belongs to O=C(O)c1ccc(C2Nc3c(Cl)cc(Cl)c(Cl)c3C3C=CCC32)cc1 (stereo not drawn) ?
85

====

Measured Average Inhibition (%) at 32 μM of individual entries
- System: human SARS-CoV Toronto-2 strain
- Assay type: cell-based
- SETUP CONDITIONS: 32 μM
The reply should consist of the numeric value with the unit placed after it.

Examples with their reported Average Inhibition (%) at 32 μM follow.
| MOLECULE | Average Inhibition (%) at 32 μM |
| --- | --- |
| CCN1C(=O)c2cccc3c(NC(=O)c4ccc([N+](=O)[O-])s4)ccc1c23 [CS05] | 0% |
| CN1CCc2c(sc3c2C(=O)NC(c2ccc(O)c(O)c2)N3)C1 (stereo not drawn) [CS01] | 0% |
| CC(=O)Nc1ccc2c(c1)[C@H]1C=CC[C@@H]1[C@H](c1ccc([N+](=O)[O-])cc1)N2 [CS08] | 17% |
| Cc1ccc([N+](=O)[O-])cc1N1C(=O)c2ccc(C(=O)O)cc2C1=O [CS12] | 13% |
| NC(c1cc(C(F)(F)F)cc(C(F)(F)F)c1)c1cc(C(F)(F)F)cc(C(F)(F)F)c1 [CS03] | 0% |

Let us move to another entry and its Average Inhibition (%) at 32 μM.
Item under review: O=C(O)c1ccc(C2Nc3c(Cl)cc(Cl)c(Cl)c3C3C=CCC32)cc1 (stereo not drawn) [CS09] . Reported Average Inhibition (%) at 32 μM?
13%
